Target: mouse DLL3 on CHO-K1-mDLL3 cells (mouse) (UniProt O88516)
Sequence (O88516 other isoform, or with tags, fused parts or gaps limits assumed): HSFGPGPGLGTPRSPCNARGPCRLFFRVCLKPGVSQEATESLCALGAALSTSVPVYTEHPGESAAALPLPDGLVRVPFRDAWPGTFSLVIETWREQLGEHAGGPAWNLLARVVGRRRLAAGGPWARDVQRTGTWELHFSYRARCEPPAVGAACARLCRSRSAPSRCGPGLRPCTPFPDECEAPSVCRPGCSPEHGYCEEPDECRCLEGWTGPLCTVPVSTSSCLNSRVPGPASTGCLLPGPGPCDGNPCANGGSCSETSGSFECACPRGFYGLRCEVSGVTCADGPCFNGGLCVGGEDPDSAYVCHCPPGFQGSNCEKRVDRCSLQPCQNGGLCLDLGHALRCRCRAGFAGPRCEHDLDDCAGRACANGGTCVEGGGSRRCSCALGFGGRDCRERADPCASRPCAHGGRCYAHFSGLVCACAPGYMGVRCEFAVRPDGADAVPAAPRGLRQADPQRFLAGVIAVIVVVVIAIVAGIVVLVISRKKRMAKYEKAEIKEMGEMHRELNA
Experiment: FACS, CHO-K1-mDLL3 cells, 4 nM antibody
Collected MFI values appear next to each entry.
The reply must contain the numeric value and, after it, the unit.

Observe how each entry below is paired with its result.
Hab009VL1aVH1-hFc (scFv, part only; not given: scFv linker and human IgG1 Fc, V domains shown, not shown: another chain or arm of the molecule; a dimerising Fc or GST; small tags and cut ends) VL: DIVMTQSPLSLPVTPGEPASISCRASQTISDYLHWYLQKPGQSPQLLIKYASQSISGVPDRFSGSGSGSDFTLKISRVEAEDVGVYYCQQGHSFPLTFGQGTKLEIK VH: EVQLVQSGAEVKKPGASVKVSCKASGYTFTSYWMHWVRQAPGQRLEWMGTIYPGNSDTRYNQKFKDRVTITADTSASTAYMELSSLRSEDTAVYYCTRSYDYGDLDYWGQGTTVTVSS	367 MFI
Hab014VL1VH2-hFc (scFv, part only; not given: VL-VH linker and human IgG1 Fc, V domains shown, not shown: another chain or arm of the molecule; a dimerising Fc or GST; small tags and cut ends) VL: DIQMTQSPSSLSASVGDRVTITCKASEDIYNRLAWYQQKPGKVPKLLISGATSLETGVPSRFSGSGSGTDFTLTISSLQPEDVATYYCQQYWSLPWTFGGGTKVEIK VH: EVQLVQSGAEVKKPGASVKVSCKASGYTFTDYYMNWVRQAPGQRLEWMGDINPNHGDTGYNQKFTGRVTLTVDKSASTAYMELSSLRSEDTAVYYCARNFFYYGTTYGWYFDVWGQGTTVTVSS	311 MFI
Hab015VL4VH5a-hFc (scFv, part only; not given: VL-VH linker and human IgG1 Fc, V domains shown, not shown: another chain or arm of the molecule; a dimerising Fc or GST; small tags and cut ends) VL: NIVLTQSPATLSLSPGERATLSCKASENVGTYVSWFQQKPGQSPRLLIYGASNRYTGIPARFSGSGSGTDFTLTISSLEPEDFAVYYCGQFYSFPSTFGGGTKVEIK VH: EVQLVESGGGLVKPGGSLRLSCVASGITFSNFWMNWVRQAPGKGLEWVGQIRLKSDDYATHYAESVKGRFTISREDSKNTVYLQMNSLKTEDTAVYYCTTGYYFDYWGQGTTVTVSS	1210 MFI
Hab009VL2aVH1-hFc (scFv, part only; not given: VL-VH linker and human IgG1 Fc, V domains shown, not shown: another chain or arm of the molecule; a dimerising Fc or GST; small tags and cut ends) VL: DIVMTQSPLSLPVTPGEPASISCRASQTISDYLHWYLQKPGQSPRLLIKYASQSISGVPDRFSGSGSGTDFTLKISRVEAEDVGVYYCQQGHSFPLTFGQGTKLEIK VH: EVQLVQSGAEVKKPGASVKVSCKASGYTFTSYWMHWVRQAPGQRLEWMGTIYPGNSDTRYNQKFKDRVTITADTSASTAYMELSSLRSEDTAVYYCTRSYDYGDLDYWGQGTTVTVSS	358 MFI

*Q* What does the data say about its MFI? Entry: Hab006VL4VH2-hFc (scFv, part only; not given: scFv linker and human IgG1 Fc, V domains shown, not shown: another chain or arm of the molecule; a dimerising Fc or GST; small tags and cut ends) VL: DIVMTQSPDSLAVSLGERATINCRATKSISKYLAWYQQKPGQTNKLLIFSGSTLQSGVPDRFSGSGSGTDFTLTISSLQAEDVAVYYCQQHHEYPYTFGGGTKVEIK VH: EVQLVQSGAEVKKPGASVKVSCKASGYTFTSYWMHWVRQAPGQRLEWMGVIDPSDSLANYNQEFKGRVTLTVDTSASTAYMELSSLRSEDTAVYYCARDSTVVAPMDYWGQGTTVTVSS
*A* 577 MFI

Hey, just so you know, these numbers are from patent EP4786492A1.
